Tested on: 885512-296-R-J2-PDC complex spheroid viability;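 further: spheroids exposed to the compounds for one week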
Test: Anticancer human tumor 885512-296-R-J2-PDC patient-derived breast carcinoma cell line growth inhibition [GQUAD]; active means viability on the fitted dose curve at most 10% of control; inactive means the rest
Conditions: second compound 1 µM; first compound 1 µM
Please state which outcome applies, choosing from true = active, false = inactive

MOLECULE	CATEGORY LABEL
O=C(NO)c1cnc(N2CCN(S(=O)(=O)c3ccc4ccccc4c3)CC2)nc1 + CN(C)c1ccc(Nc2c3ccc(NC(=O)CCN4CCCC4)cc3nc3cc(NC(=O)CCN4CCCC4)ccc23)cc1	true
COc1ncnc(C2CC2)c1-c1ncc2cnn(Cc3ccc(-c4nc(C(F)(F)F)cn4C(C)C)cc3)c2n1 + Cc1cnc(CNC(=O)c2c(=O)c3ccc(N4CCCN(C)CC4)nc3n3c2sc2ccccc23)cn1	false

Turning now to a further record.
Task item: Recorded test outcome, item CC(C)n1c(=O)n(C)c2cnc3cc(F)c(-c4ccc(OCCCN5CCCCC5)nc4)cc3c21 + Cc1cnc(CNC(=O)c2c(=O)c3ccc(N4CCCN(C)CC4)nc3n3c2sc2ccccc23)cn1
Reply: false
